The reported numbers originate from ChEMBL document CHEMBL1133551.

test system: Felis catus; assay: Duration (90%) measured for NMB activity in anesthetized cats; assay type: functional
Listing: Duration of selected molecules
API: value field is a number in min; no unit string.

C=CC[N+]1([C@H]2C[C@H]3[C@@H]4CC[C@H]5C[C@H](O)[C@@H](N6CCOCC6)C[C@]5(C)[C@H]4CC[C@]3(C)[C@H]2OC(C)=O)CCCC1 [ROCURONIUM] = 8.3
CC(=O)O[C@H]1C[C@@H]2CC[C@@H]3[C@H](CC[C@@]4(C)[C@H]3C[C@H]([N+]3(C)CCCCC3)[C@@H]4OC(C)=O)[C@@]2(C)C[C@@H]1[N+]1(C)CCCCC1 [PANCURONIUM] = 11.7
COc1ccc(CC2c3cc(OC)c(OC)cc3CC[N+]2(C)CCC(=O)OCCCCCOC(=O)CC[N+]2(C)CCc3cc(OC)c(OC)cc3C2Cc2ccc(OC)c(OC)c2)cc1OC (centres undefined) = 19.4

Now, please, on to the next molecule.
Which Duration reading was recorded for the molecule C[N+](C)(C)CCOC(=O)CCC(=O)OCC[N+](C)(C)C [SUXAMETHONIUM] ?
5.7
